- MEASUREMENT NOTES: Solubility of the compound in fasted state simulated intestinal fluid at pH 6.5 after 24 hrs by HPLC-UV spectrophotometric assay
- Assay type: physicochemical
VALUE KIND: solubility at 24 h

Ask | If you can, please state the reported solubility at 24 h value of "COc1cc2ncccc2cc1NC(=O)c1csc2cncnc12" .
Reply | < 3 µg/mL

----------
- SYSTEM: Insulin-like growth factor 1 receptor (Homo sapiens, UniProt P08069)
- Sequence (P08069 31-736 limits assumed): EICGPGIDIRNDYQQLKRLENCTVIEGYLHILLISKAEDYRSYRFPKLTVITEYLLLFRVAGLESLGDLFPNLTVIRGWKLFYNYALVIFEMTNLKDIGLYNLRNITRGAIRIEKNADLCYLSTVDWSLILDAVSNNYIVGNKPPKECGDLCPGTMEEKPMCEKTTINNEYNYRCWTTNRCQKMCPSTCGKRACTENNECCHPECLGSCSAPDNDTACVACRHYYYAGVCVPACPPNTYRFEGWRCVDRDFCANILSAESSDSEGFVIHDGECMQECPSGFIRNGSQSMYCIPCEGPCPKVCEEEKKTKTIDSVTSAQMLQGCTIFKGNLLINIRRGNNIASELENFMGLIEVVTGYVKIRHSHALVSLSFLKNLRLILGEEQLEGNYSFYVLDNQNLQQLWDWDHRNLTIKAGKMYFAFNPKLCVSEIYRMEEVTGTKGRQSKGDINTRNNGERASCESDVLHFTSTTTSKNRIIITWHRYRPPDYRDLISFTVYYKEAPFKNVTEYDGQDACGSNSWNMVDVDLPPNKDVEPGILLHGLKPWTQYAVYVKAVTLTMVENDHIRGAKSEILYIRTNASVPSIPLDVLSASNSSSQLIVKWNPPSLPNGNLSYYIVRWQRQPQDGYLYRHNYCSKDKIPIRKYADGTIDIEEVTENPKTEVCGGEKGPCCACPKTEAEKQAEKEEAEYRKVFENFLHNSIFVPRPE
- Sequence (P08069 741-1367 limits assumed): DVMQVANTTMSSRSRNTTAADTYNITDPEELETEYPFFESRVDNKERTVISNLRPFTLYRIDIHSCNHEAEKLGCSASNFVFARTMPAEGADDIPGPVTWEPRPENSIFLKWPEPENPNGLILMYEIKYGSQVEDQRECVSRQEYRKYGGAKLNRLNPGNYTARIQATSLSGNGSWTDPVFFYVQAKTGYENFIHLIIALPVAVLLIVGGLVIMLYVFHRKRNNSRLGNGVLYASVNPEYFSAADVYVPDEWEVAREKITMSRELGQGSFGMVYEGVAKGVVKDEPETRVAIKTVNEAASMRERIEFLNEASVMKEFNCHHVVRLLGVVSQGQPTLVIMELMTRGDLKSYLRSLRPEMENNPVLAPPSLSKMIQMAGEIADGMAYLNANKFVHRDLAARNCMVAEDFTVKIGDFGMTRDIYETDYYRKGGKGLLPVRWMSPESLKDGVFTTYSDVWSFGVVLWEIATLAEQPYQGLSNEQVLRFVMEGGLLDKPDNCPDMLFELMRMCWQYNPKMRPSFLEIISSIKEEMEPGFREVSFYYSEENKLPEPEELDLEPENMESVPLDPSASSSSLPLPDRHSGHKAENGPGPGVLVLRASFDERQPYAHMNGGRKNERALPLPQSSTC
- MEASUREMENT NOTES: Inhibition of recombinant human N-terminal GST-tagged IGF1R cytoplasmic domain (959 to 1367 residues) expressed in baculovirus expression system
pIC50: −log10 of the molar value.
VALUE KIND: pIC50

Ask | Quick one: pIC50 for "COc1cc2ncccc2cc1NC(=O)c1csc2cncnc12" ?
Reply | < 4.30
